Test system: genotype 1a (H77) wild type transient HCV replicon in Huh-7-derived cells
Test: Transient-transfected HCV replicon EC50, genotype 1a wild type
Format: cell-based, hepatitis C virus
Settings: Hepatitis C virus, 72 h, read-out: EC50 1A WT
quantity-kind: EC50
Just the number plus its unit, please.

Recorded results for 4 molecules are shown here.
>  <smiles-code>
COc1ccc2nc3c(nc2c1)O[C@H]1CN(C(=O)[C@H](C(C)(C)C)NC(=O)O[C@@H]2C[C@@H]4C[C@@H]4[C@H]2CCCCC3)[C@H](C(=O)N[C@]2(C(=O)NS(=O)(=O)C3(C)CC3)C[C@H]2C(F)F)[C@@H]1C

>  <EC50>
3.5 nM

$$$$
>  <smiles-code>
COc1ccc2nc3c(nc2c1)O[C@H]1CN(C(=O)[C@H](C(C)(C)C)NC(=O)O[C@@H]2C[C@H]2CCCCC3)[C@H](C(=O)N[C@]2(C(=O)NS(=O)(=O)C3CC3)C[C@H]2C(F)F)[C@@H]1C

>  <EC50>
2.1 nM

$$$$
>  <smiles-code>
C=C[C@@H]1C[C@]1(NC(=O)[C@@H]1[C@H](C)[C@@H]2CN1C(=O)[C@H](C(C)(C)C)NC(=O)O[C@@H]1C[C@H]1CCCCCc1nc3ccc(OC)cc3nc1O2)C(=O)NS(=O)(=O)C1CC1

>  <EC50>
1.7 nM

$$$$
>  <smiles-code>
CC[C@@H]1[C@@H]2CN(C(=O)[C@H](C3CCCC3)NC(=O)O[C@@H]3C[C@H]3CCCCCc3nc4ccc(OC)cc4nc3O2)[C@@H]1C(=O)N[C@]1(C(=O)NS(=O)(=O)C2CC2)C[C@H]1C(F)F

>  <EC50>
6.5 nM

$$$$

Next molecule, please.
Q: Return reported EC50; argument: CC[C@@H]1C[C@]1(NC(=O)[C@@H]1[C@H](C)[C@@H]2CN1C(=O)[C@H](C(C)(C)C)NC(=O)O[C@@H]1C[C@H]1CCCCCc1nc3ccc(OC)cc3nc1O2)C(=O)NS(=O)(=O)C1CC1
Result: 3.4 nM

====

Test system: genotype 4a (ED43) stable HCV replicon in Huh-7-derived cells
Assay: Stable subgenomic HCV replicon EC50, genotype 4a (Renilla luciferase)
Type: cell-based, hepatitis C virus
Conditions: Hepatitis C virus, 72 h, read-out: EC50 4A RLUC
Protocol: Antiviral potency (EC50) was determined in both stable subgenomic HCV replicon cell lines and transient-transfected HCV replicon cells. […] To perform EC50 assays, cells from each HCV replicon were dispensed into 384-well plates. […] Seventy-two hours later, cells were lysed and Renilla luciferase activity were quantified as recommended by the manufacturer (Promega-Madison, Wis.). […]
// reported pEC50 for each item listed
Please report pEC50 as the negative decimal logarithm of the molar concentration, giving only the number.

>  <smiles-code>
C[C@@H]1[C@@H]2CN(C(=O)[C@H](C(C)(C)C)NC(=O)O[C@@H]3C[C@@H]4C[C@@H]4[C@H]3CCCCCc3nc4ccc(Cl)cc4nc3O2)[C@@H]1C(=O)N[C@]1(C(=O)NS(=O)(=O)C2CC2)C[C@H]1C(F)F

>  <pEC50>
8.25

$$$$
>  <smiles-code>
COc1ccc2nc3c(nc2c1)O[C@H]1CN(C(=O)[C@H](C(C)(C)C)NC(=O)O[C@@]2(C)C[C@@H]2CCCCC3(F)F)[C@H](C(=O)N[C@]2(C(=O)NS(=O)(=O)C3(C)CC3)C[C@H]2C(F)F)[C@@H]1C

>  <pEC50>
7.80

$$$$
>  <smiles-code>
CC[C@@H]1[C@@H]2CN(C(=O)[C@H](C(C)(C)C)NC(=O)O[C@@H]3C[C@H]3CCCCCc3nc4ccc(OC)cc4nc3O2)[C@@H]1C(=O)N[C@]1(C(=O)NS(=O)(=O)C2CC2)C[C@H]1C(F)F

>  <pEC50>
8.57

$$$$

Next compound, please.
Q: Return reported pEC50; argument: COc1ccc2nc3c(nc2c1)O[C@H]1CN(C(=O)[C@H](C(C)(C)C)NC(=O)O[C@@H]2C[C@H]2CCCCC3(F)F)[C@H](C(=O)N[C@]2(C(=O)NS(=O)(=O)C3(C)CC3)C[C@H]2C(F)F)[C@@H]1C
Result: 8.60
